# target_entity: Serine/threonine-protein kinase pim-1 (Homo sapiens)
assay_readout: IC50

C=Cc1n[nH]c2cc([N+](=O)[O-])c3ncc4ccccc4c3c12 :: 0.031 µM

---

# target_entity: Serine/threonine-protein kinase pim-1 (Homo sapiens, UniProt P11309)
# procedure_text: Inhibition of full-length human Pim-1 using RSRHSSYPAG as substrate incubated in presence of [gamma33P]ATP and assessed as residual activity at 1 uM relative to control
# Sequence (P11309 whole entry, looked up): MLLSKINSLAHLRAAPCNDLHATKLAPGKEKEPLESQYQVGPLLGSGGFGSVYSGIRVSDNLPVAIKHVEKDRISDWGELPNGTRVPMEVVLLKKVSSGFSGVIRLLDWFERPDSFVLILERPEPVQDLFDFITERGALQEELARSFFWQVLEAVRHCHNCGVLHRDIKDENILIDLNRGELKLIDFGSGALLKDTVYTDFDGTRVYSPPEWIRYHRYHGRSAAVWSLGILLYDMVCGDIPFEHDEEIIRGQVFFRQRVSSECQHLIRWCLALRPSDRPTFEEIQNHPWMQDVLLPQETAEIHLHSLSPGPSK
Param label: returns Y when Activity < 40%, returns N otherwise, including exact equality.

C=Cc1n[nH]c2cc([N+](=O)[O-])c3ncc4ccccc4c3c12 :: Y
O=[N+]([O-])c1cc2[nH]nc(I)c2c2c1ncc1ccccc12 :: Y
NC(=O)c1cc2[nH]ncc2c2c1ncc1ccccc12 :: Y
COC(=O)c1cc2[nH]ncc2c2c1ncc1ccccc12 :: Y
FC(F)(F)c1cc2[nH]ncc2c2c1ncc1ccccc12 :: N
O=C(O)c1cc2[nH]ncc2c2c1ncc1ccccc12 :: N
